observable: melting point

Q: # melting point lookup, item `COc1cc2c(cc1F)CCN=C2C1(c2ccc(Cl)cc2Cl)CC1`
Result: 151 to 154 °C

Q: Also check CS(=O)c1ccc2nc(NC(=N)N)nc(-c3ccccc3)c2c1 (stereo not drawn)
Result: 175 to 180 °C

Q: What do you get for `[N-]=[N+]=N[C@]1(C(=O)O)[C@H]2[C@@H](C[C@H]1O)[C@@H]2C(=O)O` ?
Result: 124 to 128 °C

* * *

Reported melting point is given for each of the following compounds.

Guide cases for melting point, answers given:
INSERT INTO measurements (compound, test_result) VALUES
  ('CNC(=O)c1ccccc1Nc1nc(Nc2cc3c(cc2OC)N(C)C(=O)OCC3)ncc1C(F)(F)F', '210 to 212 °C'),
  ('Cc1nn(C)c2nc(N(CC(C)C)CC3CC3)c(CN(Cc3cc(C(F)(F)F)cc(C(F)(F)F)c3)c3nnn(C)n3)cc12', '99 to 101 °C'),
  ('COc1ccc(C2=NNC(=O)[C@H]3CCCC[C@@H]23)cc1OC (relative stereo)', '143 to 146 °C'),
  ('COC(=O)CCCCCCCCCCCCCCCCCCCCCc1c(C)cc(OC)c(OC)c1O', '71 to 72.5 °C'),
  ('COCCOc1ccc(CCCOC(=O)NS(=O)(=O)NCCOC(C)C)c(Oc2ncc(Cl)cc2Cl)c1', '87.5 to 88.4 °C');

Q: // returns reported melting point for input `Oc1ccc(-c2nn(-c3ccc(Br)cc3)c3c(C(F)(F)F)cccc23)cc1`
Result: 176 to 177 °C

Q: Now this one: `O=C(NCCSCc1cccc(F)c1)c1c(Cl)cccc1Cl`
Result: 70 to 72 °C

* * *

observable: melting point

Would you please look over these solved cases?
INSERT INTO results (molecule, test_result) VALUES
  ('Cc1nc2c(s1)C(=O)C(C=O)CC2 (stereo not given)', '107 to 108 °C'),
  ('COc1cc(N)c(C(=O)c2ccncc2)cc1OC', '155 to 158 °C'),
  ('Nc1cccc(C(=O)Nc2ccc(NNC=O)cc2)c1', '177 to 178 °C');

Q: So what's the measured melting point for this one? `COc1cc(OC)c2cc(S(=O)(=O)Cc3ccc(OC)c([N+](=O)[O-])c3)c(=O)oc2c1`
Result: 224 to 225 °C

Q: Also `FC(F)(F)c1cccc2c1[nH]c1c2ccc2cc[nH]c21` ?
Result: > 250 °C

Q: Now give it for `O=C(CCCCCCCCCCBr)Nc1ccc(O)cc1` too.
Result: 116 to 117 °C

Q: Next molecule: `O=C(Nc1ccc(C(=O)N2Cc3ccccc3-c3ccccc32)cc1)c1ccc(Cl)c(Cl)c1`
Result: 94 to 95 °C

Q: And then `Cn1nc(C(=O)O)nc1CCCC(O)=S` , what is it?
Result: 118 to 120 °C

Q: What do you get for CC1CCC2(C)C(=CCC3C2CCC2(C)C3CCC23OCCO3)C1 (stereo not given) ?
Result: 121 to 122 °C

Q: Likewise for `CCCCCCCCCCCCCCCCc1nc(N(C)C)nc(OC)c1Br` ?
Result: 66 to 67 °C

* * *

melting point values, listed per item

Below are worked cases with known answers.
INSERT INTO results (compound, test_result) VALUES
  ('CCCc1ccc2oc(Cc3ccc(OC)cc3)c(C)c2c1O', '83 to 96 °C'),
  ('CCOCN1C(C)=C(C(=O)O)C(c2cccc([N+](=O)[O-])c2)C(C(=O)O)=C1C', '175 to 176 °C'),
  ('Cc1cc(Cl)ccc1OC(Cn1cncn1)C(=O)C(C)(C)C (stereo not given)', '63 to 65 °C'),
  ('CCOC(=O)c1ccc(C(=O)NNC(=O)c2ccc(C(=O)OCC)cc2)cc1', '191 to 195 °C'),
  ('CC1(C)Oc2cnccc2C2OC21 (stereo not given)', '110 to 112 °C');

Q: Param item = `N#CNC(=NCCc1ccccc1Cl)c1cncc(NC(=O)c2ccccc2)c1` ; retrieve measured melting point.
Result: 220 °C

Q: Same question, `CCCC(=O)c1cnc2c(NCCCN3CCOCC3)cccc2c1Nc1ccccc1C` this time
Result: 110 to 111 °C
